target.system: Protein farnesyltransferase (Homo sapiens, UniProt P49354+P49356)
measurement.protocol: Inhibition of Farnesyltransferase
Type: protein-complex assay
measurement.name: IC50 (µM)
Numbers only, in µM.

Record CC(C)=CCC/C(C)=C/CC/C(C)=C/COP(=O)(O)CP(=O)(O)O [FARNESYL METHYLENEDIPHOSPHONATE] , field IC50: 0.16

Sourced from ChEMBL document CHEMBL1137881
